Catalogue of IC50 readings, one per entry.
Molecular target: Aurora A (Homo sapiens)
Construct: cell lysates from Jurkat cells (ATCC TIB-152) used; endogenous in cells
Test: Kinobeads assay, Aurora A
Details: lysate of pervanadate-treated Jurkat cells, read-out: Inhibition values (IC50) Aur A

smiles	IC50
Cn1cc(Nc2ncc3cnn(Cc4cccc(CN5CCOCC5)c4)c3n2)cn1	100 to 1000 nM
O=C1CNCCN1c1cccc(Cn2ncc3cnc(Nc4cnn(CCO)c4)nc32)c1	100 to 1000 nM
CN(C)CCCn1cc(Nc2ncc3cnn(Cc4cccc(N5CCOCC5=O)c4F)c3n2)cn1	100 to 1000 nM
Cn1cc(Nc2ncc3cnn(Cc4cccc(N5CCNCC5)c4F)c3n2)cn1	100 to 1000 nM
Cn1cc(Nc2ncc3cnn(Cc4cc(N5CCNCC5)cc(F)c4F)c3n2)cn1	1000 to 10000 nM
OCCn1cc(Nc2ncc3cnn(Cc4cccc(N5CCNCC5)c4)c3n2)cn1	100 to 1000 nM
OCCCn1cc(Nc2ncc3cnn(Cc4cccc(N5CCOCC5)c4)c3n2)cn1	100 to 1000 nM
Cn1cc(Nc2ncc3cnn(Cc4cccc(N5CCC(F)(F)CC5)c4)c3n2)cn1	1000 to 10000 nM
Cn1cc(Nc2ncc3cnn(Cc4c(F)ccc(N5CCOCC5)c4F)c3n2)cn1	100 to 1000 nM

###

Molecular target: Aurora B (Homo sapiens, UniProt Q96GD4)
Construct: cell lysates from Jurkat cells (ATCC TIB-152) used; endogenous in cells
Sequence (Q96GD4 whole entry): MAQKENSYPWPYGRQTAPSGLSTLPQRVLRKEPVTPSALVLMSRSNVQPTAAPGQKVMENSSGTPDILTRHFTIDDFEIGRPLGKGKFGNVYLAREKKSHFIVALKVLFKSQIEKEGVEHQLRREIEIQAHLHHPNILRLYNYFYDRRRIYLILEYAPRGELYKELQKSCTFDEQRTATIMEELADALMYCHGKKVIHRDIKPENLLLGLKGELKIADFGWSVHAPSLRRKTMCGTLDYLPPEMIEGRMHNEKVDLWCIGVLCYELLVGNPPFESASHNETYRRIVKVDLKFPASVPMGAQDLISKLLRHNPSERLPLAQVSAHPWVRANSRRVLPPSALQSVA
Test: Kinobeads assay, Aurora B
Settings: lysate of pervanadate-treated Jurkat cells, read-out: Inhibition values (IC50) Aur B
pIC50: −log10 of the molar value.

compound	assayedTarget	pIC50
Cn1cc(Nc2ncc3cnn(Cc4c(F)ccc(N5CCOCC5)c4F)c3n2)cn1	Aurora B (Homo sapiens, UniProt Q96GD4)	6.00 to 7.00
CN(C)CC(O)Cn1cc(Nc2ncc3cnn(Cc4cccc(N5CCOCC5)c4)c3n2)cn1 (centres unmarked)	Aurora B (Homo sapiens, UniProt Q96GD4)	5.00 to 6.00
Cn1cc(Nc2ncc3cnn(Cc4cccc(N5CCOCC5)c4Cl)c3n2)cn1	Aurora B (Homo sapiens, UniProt Q96GD4)	6.00 to 7.00
CNCC1(Cn2cc(Nc3ncc4cnn(Cc5cccc(N6CCOCC6)c5)c4n3)cn2)COC1	Aurora B (Homo sapiens, UniProt Q96GD4)	5.00 to 6.00
Cn1cc(Nc2ncc3cnn(Cc4cccc(N5CCOCC5)c4)c3n2)cn1	Aurora B (Homo sapiens, UniProt Q96GD4)	5.00 to 6.00

###

Biological target: JAK2 (Homo sapiens, UniProt O60674)
Construct: endogenous in cells
Sequence (O60674 whole entry): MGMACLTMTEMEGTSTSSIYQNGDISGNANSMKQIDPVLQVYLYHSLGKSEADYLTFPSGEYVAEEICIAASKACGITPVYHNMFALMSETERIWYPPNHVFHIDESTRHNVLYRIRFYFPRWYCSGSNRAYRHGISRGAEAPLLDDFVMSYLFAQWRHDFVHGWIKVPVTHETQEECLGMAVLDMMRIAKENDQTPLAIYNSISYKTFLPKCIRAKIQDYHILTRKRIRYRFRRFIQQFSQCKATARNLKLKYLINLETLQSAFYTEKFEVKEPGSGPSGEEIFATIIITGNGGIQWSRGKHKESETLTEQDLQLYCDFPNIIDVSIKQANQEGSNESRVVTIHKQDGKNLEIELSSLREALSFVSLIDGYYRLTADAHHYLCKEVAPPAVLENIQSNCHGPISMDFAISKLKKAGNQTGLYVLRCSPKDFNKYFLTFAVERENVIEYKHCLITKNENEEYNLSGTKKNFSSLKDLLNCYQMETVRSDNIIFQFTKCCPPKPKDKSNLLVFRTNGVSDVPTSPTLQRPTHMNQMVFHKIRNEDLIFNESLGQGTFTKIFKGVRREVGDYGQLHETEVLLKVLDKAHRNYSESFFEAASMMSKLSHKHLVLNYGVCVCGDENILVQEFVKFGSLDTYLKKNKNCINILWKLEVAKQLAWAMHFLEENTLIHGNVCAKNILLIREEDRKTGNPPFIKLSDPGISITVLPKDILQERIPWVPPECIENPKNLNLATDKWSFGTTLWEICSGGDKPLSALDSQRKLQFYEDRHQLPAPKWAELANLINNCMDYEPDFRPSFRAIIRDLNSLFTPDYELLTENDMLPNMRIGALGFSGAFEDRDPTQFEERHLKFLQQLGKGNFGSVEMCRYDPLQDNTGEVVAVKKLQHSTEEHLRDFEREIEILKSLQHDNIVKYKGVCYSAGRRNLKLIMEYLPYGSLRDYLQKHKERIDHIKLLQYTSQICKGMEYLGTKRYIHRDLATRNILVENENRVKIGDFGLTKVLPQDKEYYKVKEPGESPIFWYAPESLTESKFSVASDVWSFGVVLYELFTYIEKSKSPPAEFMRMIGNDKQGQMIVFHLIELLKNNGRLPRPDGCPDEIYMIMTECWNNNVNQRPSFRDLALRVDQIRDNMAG
Experiment: Kinobeads assay, JAK2
Conditions: mixed Molt4/Ramos lysate, read-out: Inhibition values (IC50) JAK2
Description: The compounds of the present invention as described in the previous examples were tested in a Kinobeads™ assay as described for ZAP-70 (WO-A 2007/137867). […] Bound proteins were then eluted and the presence of JAK2 and JAK3 was detected and quantified using specific antibodies in a dot blot procedure and the Odyssey infrared detection system. Dose response curves for individual kinases were generated and IC50 values calculated. […]
readoutType: IC50

compound	experimentalResult
Cn1cc(Nc2ncc3cnn(Cc4cccc(-c5cn[nH]c5)c4)c3n2)cn1	≥ 10 µM
NCCCn1cc(Nc2ncc3cnn(Cc4cccc(N5CCOCC5)c4)c3n2)cn1	≥ 10 µM
c1cc(Cn2ncc3cnc(Nc4cnn(CC5CCCNC5)c4)nc32)cc(N2CCOCC2)c1 (stereo not shown)	1 to 10 µM
O=C1COCCN1c1cc(F)cc(Cn2ncc3cnc(Nc4cn[nH]c4)nc32)c1	0.1 to 1 µM
OCCn1cc(Nc2ncc3cnn(Cc4cccc(N5CCNCC5)c4F)c3n2)cn1	1 to 10 µM
Cn1cc(Nc2ncc3cnn(Cc4cccc(NC5COC5)c4)c3n2)cn1	1 to 10 µM
Cn1cc(Nc2ncc3cnn(Cc4cccc(N5CCC(F)(F)CC5)c4)c3n2)cn1	≥ 10 µM
Cn1cc(Nc2ncc3cnn(Cc4cccc(N5CC6(COC6)C5)c4F)c3n2)cn1	1 to 10 µM
O=C(Cn1cc(Nc2ncc3cnn(Cc4cc(F)cc(N5CCOCC5=O)c4)c3n2)cn1)N1CCNCC1	1 to 10 µM
Cn1cc(-c2cc(F)c(F)c(Cn3ncc4cnc(Nc5cnn(CCO)c5)nc43)c2)cn1	1 to 10 µM
Cn1cc(Nc2ncc3cnn(Cc4cc(F)cc(-c5cnn(C)c5)c4)c3n2)cn1	0.1 to 1 µM
O=C1CNCCN1c1cc(F)cc(Cn2ncc3cnc(Nc4cnn(CCO)c4)nc32)c1	1 to 10 µM
Cn1cc(Nc2ncc3cnn(Cc4c(F)ccc(N5CCNCC5=O)c4F)c3n2)cn1	1 to 10 µM
Cn1cc(Nc2ncc3cnn(Cc4cccc(N5CCNCC5)c4F)c3n2)cn1	1 to 10 µM
Cn1cc(-c2cccc(Cn3ncc4cnc(Nc5cnn(CCO)c5)nc43)c2F)cn1	1 to 10 µM
OCCn1cc(Nc2ncc3cnn(Cc4cc(N5CCOCC5)ccc4F)c3n2)cn1	≥ 10 µM
Cn1cc(Nc2ncc3cnn(Cc4cc(N5CCOCC5)cc(F)c4F)c3n2)cn1	≥ 10 µM
Cn1cc(Nc2ncc3cnn(Cc4cc(F)cc(N5CCNCC5)c4)c3n2)cn1	1 to 10 µM
Cn1cc(Nc2ncc3cnn(Cc4cc(F)cc(N5CC6(COC6)C5)c4)c3n2)cn1	1 to 10 µM
Cn1cc(Nc2ncc3cnn(Cc4c(F)ccc(N5CCOCC5=O)c4F)c3n2)cn1	1 to 10 µM
CC(C)n1cc(-c2cccc(Cn3ncc4cnc(Nc5cnn(C)c5)nc43)c2)cn1	≥ 10 µM
Cn1cc(Nc2ncc3cnn(Cc4cc(F)cc(N5CCNCC5=O)c4)c3n2)cn1	1 to 10 µM
Fc1cc(N2CCOCC2)c(F)c(Cn2ncc3cnc(Nc4cn[nH]c4)nc32)c1F	1 to 10 µM
N#CCCn1cc(Nc2ncc3cnn(Cc4cc(F)cc(N5CCOCC5=O)c4)c3n2)cn1	1 to 10 µM
OCCn1cc(Nc2ncc3cnn(Cc4c(F)ccc(N5CCOCC5)c4F)c3n2)cn1	≥ 10 µM
Cn1cc(Nc2ncc3cnn(Cc4cccc(-c5cnn(CCO)c5)c4)c3n2)cn1	1 to 10 µM
O=C1COCCN1c1cc(F)c(F)c(Cn2ncc3cnc(Nc4cnn(CCO)c4)nc32)c1F	1 to 10 µM
Cn1cc(Nc2ncc3cnn(Cc4cc(F)cc(N5CCOCC5)c4)c3n2)cn1	1 to 10 µM
Cn1cc(Nc2ncc3cnn(Cc4cc(N5CCOCC5)ccc4F)c3n2)cn1	≥ 10 µM
COC1CN(c2cccc(Cn3ncc4cnc(Nc5cnn(C)c5)nc43)c2)C1	≥ 10 µM
O=C(c1cccc(Cn2ncc3cnc(Nc4cnn(CCO)c4)nc32)c1F)N1CCOCC1	1 to 10 µM
Cn1cc(Nc2ncc3cnn(Cc4cccc(-c5cnn(CC(N)=O)c5)c4)c3n2)cn1	1 to 10 µM
Cn1cc(Nc2ncc3cnn(Cc4cccc(CN5CCOCC5)c4)c3n2)cn1	≥ 10 µM
CN(C)CC1(Cn2cc(Nc3ncc4cnn(Cc5cccc(N6CCOCC6)c5)c4n3)cn2)COC1	≥ 10 µM

###

Catalogue of IC50 readings, one per entry.
Target: JAK2 (Homo sapiens, UniProt O60674)
Construct: endogenous in cells
Experiment: Kinobeads assay, JAK2
Settings: mixed Molt4/Ramos lysate, read-out: Inhibition values (IC50) JAK2

compound	IC50
O=C1CCCN1CCCn1cc(Nc2ncc3cnn(Cc4cccc(N5CCOCC5)c4)c3n2)cn1	≥ 10 µM
Cn1cc(Nc2ncc3cnn(Cc4cccc(N5CCC(=O)CC5)c4)c3n2)cn1	≥ 10 µM
O=C1COCCN1c1cc(F)cc(Cn2ncc3cnc(Nc4cnn(CCS(=O)(=O)NC5CC5)c4)nc32)c1	1 to 10 µM
CN(C)CC(O)Cn1cc(Nc2ncc3cnn(Cc4cccc(N5CCOCC5)c4)c3n2)cn1 (stereo not shown)	≥ 10 µM

###

Biological target: Aurora A (Homo sapiens, UniProt O14965)
Construct: cell lysates from Jurkat cells (ATCC TIB-152) used; endogenous in cells; host or cells: Jurkat cells (ATCC TIB-152), treated with pervanadate
Sequence (O14965 whole entry): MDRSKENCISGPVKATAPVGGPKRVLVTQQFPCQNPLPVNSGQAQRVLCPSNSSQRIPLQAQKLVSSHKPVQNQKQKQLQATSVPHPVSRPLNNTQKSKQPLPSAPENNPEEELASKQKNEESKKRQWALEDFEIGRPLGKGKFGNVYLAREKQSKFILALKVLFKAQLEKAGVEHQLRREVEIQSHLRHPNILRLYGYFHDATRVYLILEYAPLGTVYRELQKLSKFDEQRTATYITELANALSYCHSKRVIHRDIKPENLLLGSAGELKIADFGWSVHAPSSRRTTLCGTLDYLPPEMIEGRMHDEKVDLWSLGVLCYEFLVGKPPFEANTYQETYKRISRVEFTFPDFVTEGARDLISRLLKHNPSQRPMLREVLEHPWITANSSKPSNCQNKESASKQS
Experiment: Kinobeads assay, Aurora A
Type: binding

compound	JAK3/AurA Fold Selectivity
OCCn1cc(Nc2ncc3cnn(Cc4cc(N5CCNCC5)cc(F)c4F)c3n2)cn1 [Example 78]	10-50 Fold
O=C1CNCCN1c1cccc(Cn2ncc3cnc(Nc4cnn(CCO)c4)nc32)c1F [Example 55]	10-50 Fold
CN(C)CCCn1cc(Nc2ncc3cnn(Cc4c(F)c(F)cc(N5CCOCC5)c4F)c3n2)cn1 [Example 42]	>50 Fold
Cc1c(Cn2ncc3cnc(Nc4cnn(C)c4)nc32)cccc1N1CCOCC1 [Example 11]	10-50 Fold
Cn1cc(Nc2ncc3cnn(Cc4cccc(N5CCNCC5)c4)c3n2)cn1 [Example 22]	10-50 Fold
CN(C)CCCn1cc(Nc2ncc3cnn(Cc4cccc(N5CCOCC5)c4F)c3n2)cn1 [Example 43]	>50 Fold
O=C1COCCN1c1cccc(Cn2ncc3cnc(Nc4cnn(CCO)c4)nc32)c1F [Example 46]	10-50 Fold
OCCCn1cc(Nc2ncc3cnn(Cc4cccc(N5CCOCC5)c4)c3n2)cn1 [Example 18]	10-50 Fold
Cn1cc(Nc2ncc3cnn(Cc4cccc(N5CCN(S(C)(=O)=O)CC5)c4)c3n2)cn1 [Example 100]	3-10 Fold
O=C1COCCN1c1cccc(Cn2ncc3cnc(Nc4cnn(CCO)c4)nc32)c1 [Example 29]	3-10 Fold
Cn1cc(Nc2ncc3cnn(Cc4cccc(N5CCC(F)(F)CC5)c4)c3n2)cn1 [Example 19]	10-50 Fold
Cn1cc(Nc2ncc3cnn(Cc4cc(F)cc(N5CCOCC5)c4)c3n2)cn1 [Example 49]	10-50 Fold
Cn1cc(Nc2ncc3cnn(Cc4cc(-c5cnn(C)c5)cc(F)c4F)c3n2)cn1 [Example 126]	>50 Fold
CN(C)CCCn1cc(Nc2ncc3cnn(Cc4cccc(N5CCOCC5=O)c4F)c3n2)cn1 [Example 50]	>50 Fold
NC(=O)CCn1cc(Nc2ncc3cnn(Cc4cccc(N5CCOCC5)c4)c3n2)cn1 [Example 14]	10-50 Fold
Cn1cc(Nc2ncc3cnn(Cc4cc(N5CCOCC5=O)cc(F)c4F)c3n2)cn1 [Example 53]	>50 Fold
OCCn1cc(Nc2ncc3cnn(Cc4c(F)ccc(N5CCOCC5)c4F)c3n2)cn1 [Example 82]	3-10 Fold
CN(C)CC1(Cn2cc(Nc3ncc4cnn(Cc5cccc(N6CCOCC6)c5)c4n3)cn2)COC1 [Example 31]	3-10 Fold
OCCn1cc(Nc2ncc3cnn(Cc4cccc(N5CCOCC5)c4)c3n2)cn1 [Example 5]	10-50 Fold
Cn1cc(Nc2ncc3cnn(Cc4cccc(-c5cnn(C)c5)c4)c3n2)cn1 [Example 115]	10-50 Fold
O=C1COCCN1c1cc(F)cc(Cn2ncc3cnc(Nc4cnn(CCS(=O)(=O)NC5CC5)c4)nc32)c1 [Example 106]	10-50 Fold
O=C1CNCCN1c1cccc(Cn2ncc3cnc(Nc4cnn(CCO)c4)nc32)c1 [Example 57]	10-50 Fold
CCn1cc(-c2cccc(Cn3ncc4cnc(Nc5cnn(C)c5)nc43)c2)cn1 [Example 116]	10-50 Fold
CNCC1(Cn2cc(Nc3ncc4cnn(Cc5cccc(N6CCOCC6)c5)c4n3)cn2)COC1 [Example 41]	10-50 Fold
CCOC(=O)C1CCCN(c2cccc(Cn3ncc4cnc(Nc5cnn(C)c5)nc43)c2)C1 (stereo not shown) [Example 13]	3-10 Fold
CN(C)CC(O)Cn1cc(Nc2ncc3cnn(Cc4cccc(N5CCOCC5)c4)c3n2)cn1 (stereo not shown) [Example 33]	>50 Fold
Cn1cc(Nc2ncc3cnn(Cc4cccc(N5CCOCC5=O)c4F)c3n2)cn1 [Example 40]	10-50 Fold
O=C(CCn1cc(Nc2ncc3cnn(Cc4cccc(N5CCOCC5)c4)c3n2)cn1)NC1CC1 [Example 35]	10-50 Fold
OCCn1cc(Nc2ncc3cnn(Cc4cc(F)cc(N5CCNCC5)c4F)c3n2)cn1 [Example 96]	>50 Fold
O=C1COCCN1c1cc(F)cc(Cn2ncc3cnc(Nc4cnn(CCO)c4)nc32)c1F [Example 74]	10-50 Fold
CNC(=O)Cn1cc(Nc2ncc3cnn(Cc4cccc(N5CCOCC5)c4)c3n2)cn1 [Example 12]	3-10 Fold
FC(F)Cn1cc(Nc2ncc3cnn(Cc4cccc(N5CCOCC5)c4)c3n2)cn1 [Example 23]	3-10 Fold
Cn1cc(Nc2ncc3cnn(Cc4cccc(C(=O)N5CCOCC5)c4F)c3n2)cn1 [Example 87]	>50 Fold
Cn1cc(Nc2ncc3cnn(Cc4cc(F)cc(N5CCOCC5=O)c4)c3n2)cn1 [Example 52]	>50 Fold

Origin of measurements: patent US9040545B2
